Recorded values, source DBAASP.

tested on: Bacillus subtilis 168
RESULT_TYPE: MIC (µM)
Record the value in µM, omitting the unit from your answer.

Item: CC[C@H](C)[C@H](NC(=O)[C@H](CCCCN)NC(=O)[C@H](CCCCN)NC(=O)[C@H](Cc1c[nH]c2ccccc12)NC(=O)[C@H](CC(N)=O)NC(=O)[C@@H](N)C(C)C)C(=O)N[C@@H](CC(C)C)C(=O)N[C@@H](CCCCN)C(=O)N[C@@H](CCCCN)C(=O)N[C@H](C(=O)N[C@H](C(=O)N[C@@H](CCCCN)C(=O)N[C@H](C(=O)N[C@@H](C)C(=O)N[C@@H](CCCCN)C(N)=O)C(C)C)[C@@H](C)CC)[C@@H](C)CC | MIC: 0.7

----------
In this section, each of the compounds is paired with its reported MIC.
system: Enterococcus faecalis CGMCC 1.595
// return numeric value only (unit: µM, not printed)

Sample records with MIC:
CC(C)[C@H](N)C(=O)N[C@@H](Cc1c[nH]c2ccccc12)C(=O)N[C@@H](CCCN=C(N)N)C(=O)N[C@@H](CCCCN)C(=O)N[C@@H](Cc1c[nH]c2ccccc12)C(=O)N[C@@H](CCCN=C(N)N)C(=O)N[C@@H](CCCN=C(N)N)C(=O)N[C@@H](Cc1ccccc1)C(=O)N[C@@H](Cc1c[nH]c2ccccc12)C(=O)N[C@@H](CCCCN)C(=O)N[C@@H](CCCN=C(N)N)C(=O)O [VWRKWRRFWKR]: 6.25
CC[C@H](C)[C@H](N)C(=O)N[C@@H](CCCCN)C(=O)N[C@@H](CCCCN)C(=O)N[C@H](C(=O)N[C@@H](CC(C)C)C(=O)N[C@@H](CO)C(=O)N[C@@H](CCCCN)C(=O)N[C@H](C(=O)N[C@@H](CCCCN)C(=O)N[C@@H](CCCCN)C(=O)N[C@@H](CC(C)C)C(=O)N[C@@H](CC(C)C)C(=O)N[C@@H](CCCCN)C(N)=O)[C@@H](C)CC)[C@@H](C)CC [IKKILSKIKKLLK]: 3.13

// next entry
The observed MIC for CC[C@H](C)[C@H](N)C(=O)N[C@@H](CCCCN)C(=O)N[C@@H](CCCCN)C(=O)N[C@H](C(=O)N[C@@H](Cc1c[nH]c2ccccc12)C(=O)N[C@@H](CO)C(=O)N[C@@H](CCCCN)C(=O)N[C@H](C(=O)N[C@@H](CCCCN)C(=O)N[C@@H](CCCCN)C(=O)N[C@@H](Cc1c[nH]c2ccccc12)C(=O)N[C@@H](Cc1c[nH]c2ccccc12)C(=O)N[C@@H](CCCCN)C(=O)O)[C@@H](C)CC)[C@@H](C)CC [IKKIWSKIKKWWK] when tested with Enterococcus faecalis CGMCC 1.595 stands at 5

----------
Items are presented alongside their recorded MIC.
tested on: Pseudomonas aeruginosa ATCC 27853; test: ≥ marks a high value that may be exact or a test limit, other limits are often not marked, values filed in µg/mL are converted to µM
Number only, in µM; omit the unit.

NC(=O)[C@H](Cc1c[nH]c2ccccc12)NC(=O)[C@H](CCCN=C(N)N)NC(=O)[C@H](Cc1c[nH]c2ccccc12)NC(=O)[C@H](Cc1c[nH]c2ccccc12)NC(=O)[C@H](Cc1c[nH]c2ccccc12)NC(=O)[C@H](CCCN=C(N)N)NC(=O)[C@@H](N)Cc1c[nH]c2ccccc12: 16

Continue with the next compound.
Reported MIC ( C[C@H](NC(=O)[C@H](Cc1c[nH]c2ccccc12)NC(=O)[C@H](CCCCN)NC(=O)[C@H](C)NC(=O)[C@@H](N)Cc1ccccc1)C(=O)N[C@@H](Cc1ccccc1)C(=O)N[C@@H](CCCCN)C(=O)N[C@@H](Cc1c[nH]c2ccccc12)C(=O)N[C@@H](C)C(=O)N[C@@H](CCCCN)C(=O)N[C@@H](CCCCN)C(N)=O ) = 142
